Tested on: MEKK2 (MAP3K2) mutant PB1 domain binding to MEK5, human
Assay: MEK5 binding signal on mutant MEKK2 PB1, primary screen, biochemical, multiplex bead flow cytometry, Alexa488-MEK5 (AID 1530)
Conditions: at 10 µM, stronger effect = higher value
Screen size: about 290,000 compounds; about 1,000 (0.34%) were called active. The list comes from a sample in which actives are over-represented; it also holds close analogues and randomly drawn compounds.
Please respond with reported percent response for every item in the list.
Write the value in % as a bare number.

QUERY: Give reported percent response for C#CCOCCOCCOCCNc1nc(N2CCN(C(=O)[C@H](C(C)C)n3cc(CCO)nn3)CC2)nc(N2CCN(C(=O)[C@H](C(C)C)n3cc(CCO)nn3)CC2)n1 (MEKK2 (MAP3K2) mutant PB1 domain binding to MEK5, human)
RESULT: 2

QUERY: Write down the reported percent response (system: MEKK2 (MAP3K2) mutant PB1 domain binding to MEK5, human) of C#CCOCCOCCOCCNc1nc(N2CCN(C(=O)[C@H](CCC(=O)O)n3cc(C(N)CO)nn3)CC2)nc(N2CCN(C(=O)[C@H](Cc3ccc(O)cc3)n3cc(C(N)[C@H](C)CC)nn3)CC2)n1 (stereo not given in full)
RESULT: 1

QUERY: Answer with percent response of C#CCOCCOCCOCCNc1nc(N2CCN(C(=O)C(Cc3ccc(O)cc3)n3cc(C(N)CC(C)C)nn3)CC2)nc(N2CCN(C(=O)C(Cc3ccc(O)cc3)n3cc(C(N)C(C)CC)nn3)CC2)n1 (stereo not given) measured for MEKK2 (MAP3K2) mutant PB1 domain binding to MEK5, human.
RESULT: 32

QUERY: State measured percent response of the molecule C#CCOCCOCCOCCNc1nc(N2CCN(C(=O)C([C@@H](C)CC)n3cc(C(N)COC(=O)C(F)(F)F)nn3)CC2)nc(N2CCN(C(=O)[C@H](Cc3ccc(O)cc3)n3cc(C(N)[C@H](C)CC)nn3)CC2)n1 (stereo not given in full) with MEKK2 (MAP3K2) mutant PB1 domain binding to MEK5, human.
RESULT: 9

QUERY: // fetch percent response for C#CCOCCOCCOCCNc1nc(N2CCN(C(=O)C([C@@H](C)CC)n3cc(C(N)COC(=O)C(F)(F)F)nn3)CC2)nc(N2CCN(C(=O)[C@H](CCCCN)n3cc(C(N)CC(C)C)nn3)CC2)n1 (stereo not given in full) ; system: MEKK2 (MAP3K2) mutant PB1 domain binding to MEK5, human
RESULT: 53

====

Test system: MEKK2 (MAP3K2) mutant PB1 domain binding to MEK5, human
Test: MEK5 binding signal on mutant MEKK2 PB1, primary screen, biochemical, multiplex bead flow cytometry, Alexa488-MEK5 (AID 1530)
Conditions: at 10 µM, stronger effect = higher value
Out of some 290,000 compounds screened, about 1,000 (0.34%) were called active. The entries come from a sample that favours actives as a whole.
measurement.label: percent response (%)
Reply numerically in %, unit not repeated.

QUERY: Supply reported percent response belonging to this compound: Cc1c(CCOC(=O)CC23CC4CC(CC(C)(C4)C2)C3)sc[n+]1Cc1ccc([N+](=O)[O-])cc1
RESULT: 54

QUERY: // fetch percent response given entry Cc1cc(=O)[nH]c(SCc2cc(Cl)ccc2OC(F)F)n1
RESULT: 1

QUERY: Give percent response for CCc1nnc(NC(=O)CSCc2cc(=O)n3cc(C)sc3n2)s1
RESULT: 4

QUERY: Identify measured percent response associated with COCCNC(=O)/C(C#N)=C/c1cccc(OCc2ccccc2)c1
RESULT: 2

QUERY: Return value of percent response for input O=C(OCc1cc(Cl)ccc1OC(F)F)c1cccnc1 , no commentary.
RESULT: 152

QUERY: Report measured percent response; entry is CC(=O)c1ccc(S(=O)(=O)N2CCC3(CC2)OCCO3)cc1
RESULT: -1

QUERY: Output measured percent response for this item: O=C(CCCN1C(=O)/C(=C\c2ccco2)SC1=S)Nc1cccc2ccccc12
RESULT: -3

QUERY: Please supply the value of reported percent response for the item Cc1ccc(NC(=S)N(CCN2CCCCC2)Cc2ccco2)cc1C
RESULT: -3

QUERY: Dear colleague, please send me the reported percent response for Cn1c(Nc2cccc(Cl)c2)nc2ccccc21 when you can.
RESULT: 4

QUERY: Tell me its percent response given O=C(CCCN1C(=O)/C(=C/c2ccco2)SC1=S)Nc1ccccc1 as the entry.
RESULT: 0

QUERY: Tell me its percent response given Cc1c(CCOC(=O)c2cc([N+](=O)[O-])ccc2Cl)sc[n+]1CCCCS(=O)(=O)[O-] as the entry.
RESULT: -1

QUERY: Give the reported value of percent response for this record: CCOC(=O)CC1C(=O)NCCN1c1nc2c(C)cccn2c(=O)c1/C=C1\SC(=S)N(C(C)CC)C1=O (stereo unspecified)
RESULT: -23

QUERY: Given the compound Cc1ccc2c(c1)N(CC(=O)N(Cc1ccccn1)Cc1ccco1)C(=O)C(C(C)C)O2 (stereo unspecified) , write its reported percent response.
RESULT: 3

QUERY: Determine its reported percent response: O=C(NC1CCN(S(=O)(=O)c2ccc(F)cc2)CC1)c1ccccc1
RESULT: 4

QUERY: Determine its reported percent response: COCCNC(=O)/C(C#N)=C/c1nc(N(C)C)n(-c2ccc(F)cc2)c1Cl
RESULT: 63

QUERY: Note down percent response recorded for CNc1nc2c(C)cccn2c(=O)c1C=Nc1ccc(OC)cc1
RESULT: 0

QUERY: Identify measured percent response corresponding to Cc1ccc(NC(=S)N(CCCN2CCCC2)Cc2cccn2Cc2ccc(Cl)cc2)cc1
RESULT: 57

QUERY: Please list percent response recorded for the compound COCCCNC(=O)/C(C#N)=C/c1c(N2CCCCCC2)nc2ccccn2c1=O
RESULT: 5

QUERY: Report measured percent response; entry is CCCN(CCC)c1nc2c(C)cccn2c(=O)c1/C=C1/SC(=S)N(Cc2ccco2)C1=O
RESULT: 147

QUERY: Read off the recorded percent response for CCn1cc(C(=O)NCC(=O)NC(C)(C)CO)c(=O)c2cc3c(cc21)OCO3
RESULT: 1

QUERY: Fill in percent response for record O=C(OCc1cc2ccccc2[nH]c1=O)c1cccnc1
RESULT: 8

====

Test system: MEKK2 (MAP3K2) mutant PB1 domain binding to MEK5, human
Assay: MEK5 binding signal on mutant MEKK2 PB1, primary screen, biochemical, multiplex bead flow cytometry, Alexa488-MEK5 (AID 1530)
Settings: at 10 µM, stronger effect = higher value
In all, about 290,000 compounds went through this assay and about 1,000 (0.34%) were called active. The sample as a whole holds a higher share of actives than the screen did.
Cut-off 20% on percent response, inclusive. At or above means yes (1); below means no (0).

QUERY: State whether the measured percent response reaches 20%, counting equality as reaching it, for COc1cccc(NC(=O)NCc2ccc(F)cc2)c1
RESULT: no (0)

QUERY: Does the reported percent response for Cc1cc2oc(=O)cc(CN3CCN(S(=O)(=O)c4cccs4)CC3)c2cc1C(C)C fall at or above the 20% mark?
RESULT: no (0)

QUERY: Hi, just wondering whether CCCCNC(=O)N1CCCC(N(C)CCc2ccc(OC)c(OC)c2)C1 (stereo not given) shows percent response of 20% or higher.
RESULT: yes (1)

QUERY: Quick check, percent response >= 20%? COCCN1CCN(C(=O)c2cc(COc3ccc(F)cc3Cl)on2)CC1
RESULT: no (0)

QUERY: Reported percent response at or above 20%? C[C@H]1[C@H]2c3nc4ccccc4n3C[C@H]1ON2C1CCCCC1
RESULT: no (0)

QUERY: Hello, I need to know if COc1ccc(OC)c(NC(=O)C2CCCN2S(=O)(=O)c2cccc3nsnc23)c1 (stereo not given) has measured percent response not below 20%. Thanks!
RESULT: no (0)

QUERY: Could you please find out whether Cc1ccc(S(=O)(=O)NC(=O)N2CCCC(C)(C)C2)cc1 has percent response that meets 20% or exceeds it?
RESULT: yes (1)

QUERY: Threshold query (percent response >= 20%) on CCN1CCN(CCNC(=O)c2ccc3c(c2)NC(=O)/C(=C\c2ccc(OC)c(OC)c2)S3)CC1
RESULT: no (0)

QUERY: Please check the record CCOc1ccc(S(=O)(=O)NCCCn2ccnc2)cc1NC(C)=O and state if its percent response is at or above 20%.
RESULT: yes (1)

====

Tested on: MEKK2 (MAP3K2) mutant PB1 domain binding to MEK5, human
Assay: MEK5 binding signal on mutant MEKK2 PB1, primary screen, biochemical, multiplex bead flow cytometry, Alexa488-MEK5 (AID 1530)
Conditions: at 10 µM, stronger effect = higher value
Among all 290,000 compounds or so, about 1,000 (0.34%) were called active. The sample as a whole holds a higher share of actives than the screen did.
measurement.label: percent response (%)
Answer in %, number only, no unit symbol.

QUERY: Identify measured percent response corresponding to CCCn1c(=N)n(CC(=O)c2ccc(Cl)c(Cl)c2)c2ccccc21
RESULT: 29

QUERY: Identify measured percent response associated with CN(Cc1ccccc1)CC(O)COc1ccc(CNCc2cc3ccccc3s2)cc1 (stereo not drawn)
RESULT: 33

QUERY: Please indicate percent response recorded for Cc1ccc(OCC(=O)OC(C)CN(C)Cc2ccccc2)cc1 (stereo not drawn)
RESULT: -3

QUERY: Could you please provide reported percent response for CCn1c(=N)n(CC(=O)c2cccc(OC)c2)c2ccccc21 ? Thanks!
RESULT: -9

QUERY: Tell me its percent response given O=S(=O)(NC1CCCCC1N1CCC(O)CC1)c1ccc(Cl)cc1 (stereo not drawn) as the entry.
RESULT: 2

QUERY: Please report the measured percent response for Cc1ccc(NC(=O)COc2ccc(-n3ccnc3)cc2)cc1Cl
RESULT: 27

QUERY: Identify percent response associated with the molecule CCCNC(=O)c1ccc(Cl)c(Cl)c1
RESULT: -1

QUERY: Return the recorded percent response value; entry: CC1=C(C)CC(C(=O)NNC(=O)c2ccccc2O)C(C(=O)O)C1 (stereo not drawn)
RESULT: 16

QUERY: Dear colleague, please send me the reported percent response for O=C(CCc1nnc2ccc(NCCCN3CCCC3=O)nn12)NCc1ccccc1Cl when you can.
RESULT: 6

QUERY: Give the reported percent response for this molecule. C=CCC1=C/C(=C\c2c(N)n3nc(CC(=O)N4CCOCC4)sc3nc2=O)C=C(OC)C1=O
RESULT: -5

QUERY: Please give measured percent response of the following entry: Cc1ccc(NC(=O)C/C(N)=N/O)cc1Cl
RESULT: 1

QUERY: // Input: OC(CNCc1ccc2c(c1)OCO2)COc1ccccc1 (stereo not drawn) . Output its percent response only.
RESULT: -5

QUERY: Look up percent response of CCC(=O)c1ccc(OCC(=O)Nc2ccc3nc(C)sc3c2)cc1 and report it.
RESULT: -22
